- SUBJECT OF TEST: NKp44-Ig (Homo sapiens)
- Construct: fusion proteins containing the extracellular domains NKp30, NKp44 or NKp46 fused to the Fc portion of human IgG1
- Sequence (O95944 22-192 limits assumed): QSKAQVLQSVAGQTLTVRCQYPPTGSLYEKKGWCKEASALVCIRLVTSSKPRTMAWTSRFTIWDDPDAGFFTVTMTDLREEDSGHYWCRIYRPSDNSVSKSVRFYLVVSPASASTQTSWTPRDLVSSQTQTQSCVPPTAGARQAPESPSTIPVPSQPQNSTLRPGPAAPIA
- ASSAY PROCEDURE: Effect of peptides on NKp44-Ig binding to tumor cells (flow cytometry)
- RUN CONDITIONS: 2 μg/well NKp44-Ig, 10 μg/well peptide, 1.5 hr; number in brackets is an undefined grade
QUANTITY MEASURED: Effect on NKp44-Ig binding to tumor cells

1) EASAL VCIRL VTSSK PRTVA (EASALVCIRLVTSSKPRTVA) [SEQ ID NO: 32] | Enhance (1)
2) VCIRL VTSSK PRIMA WTSRF (VCIRLVTSSKPRTMAWTSRF) [SEQ ID NO: 33] | Enhance (1)
3) KGWCK EASAL VCIRL VTSSK (KGWCKEASALVCIRLVTSSK) [SEQ ID NO: 31] | Enhance (1)

----------
- SUBJECT OF TEST: NKp46D2-Ig (Homo sapiens)
- Construct: made in house
- Sequence (O76036 with tags, fused parts or gaps isoform O76036-6): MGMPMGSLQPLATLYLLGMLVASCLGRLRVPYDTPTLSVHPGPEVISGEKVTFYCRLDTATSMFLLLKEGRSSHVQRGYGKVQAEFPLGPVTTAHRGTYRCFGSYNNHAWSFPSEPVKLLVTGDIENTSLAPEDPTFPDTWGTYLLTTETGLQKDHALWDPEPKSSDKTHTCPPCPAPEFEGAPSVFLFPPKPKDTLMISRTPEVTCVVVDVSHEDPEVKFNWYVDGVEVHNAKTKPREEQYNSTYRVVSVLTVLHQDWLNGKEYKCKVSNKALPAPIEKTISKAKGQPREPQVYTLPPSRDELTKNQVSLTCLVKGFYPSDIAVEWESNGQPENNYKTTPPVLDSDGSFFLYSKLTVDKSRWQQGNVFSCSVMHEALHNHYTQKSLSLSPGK
- ASSAY PROCEDURE: Effect of peptides on NKp46D2-Ig binding to target cells (flow cytometry)
- RUN CONDITIONS: 2 μg/well NKp46D2-Ig, 10 μg/well peptide, 1.5 hr; compared to staining without peptide or with non-affecting peptides; number in brackets is an undefined grade
QUANTITY MEASURED: Effect on NKp46D2L binding to cells

1. SGEKV TFYCR LDTAT SMFLL (SGEKVTFYCRLDTATSMFLL) [SEQ ID NO: 4] | inhibiting binding
2. TFYCR LDTAT SMFLL LKEGR (TFYCRLDTATSMFLLLKEGR) [SEQ ID NO: 5] | inhibiting binding
3. LDTAT SMFLL LKEGR SSHVQ (LDTATSMFLLLKEGRSSHVQ) [SEQ ID NO: 6] | inhibiting binding
